test target: human β3 adrenergic receptor (Homo sapiens, UniProt P13945)
Construct: expressed in transfected cells; host or cells: DXB-11 Chinese hamster ovary (CHO) cell line, stably transfected (phd expression vector)
Sequence (P13945 whole entry): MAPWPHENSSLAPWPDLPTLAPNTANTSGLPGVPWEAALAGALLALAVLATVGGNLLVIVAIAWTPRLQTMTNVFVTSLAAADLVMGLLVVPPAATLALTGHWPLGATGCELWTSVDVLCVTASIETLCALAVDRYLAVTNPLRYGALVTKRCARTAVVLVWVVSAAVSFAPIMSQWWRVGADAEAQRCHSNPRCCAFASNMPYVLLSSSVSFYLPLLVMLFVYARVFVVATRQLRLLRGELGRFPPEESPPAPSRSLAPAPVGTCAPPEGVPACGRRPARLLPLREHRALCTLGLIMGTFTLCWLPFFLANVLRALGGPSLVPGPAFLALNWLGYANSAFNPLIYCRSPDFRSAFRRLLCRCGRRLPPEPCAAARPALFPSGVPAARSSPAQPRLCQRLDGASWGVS
assay procedure: whole cell receptor coupled c-AMP assay, human β3 receptor in CHO cells (EC50, Emax relative to isoproterenol)
Assay type: cell-based
protocol conditions: % intrinsic activity relative to isoproterenol maximal response; average of at least 3 runs; c-AMP in transfected CHO cells
Given measured Emax (%) ± SEM, output TRUE if it is greater than or equal to 70% and FALSE if not.

Record excerpt, results attached:
>>> classification("CC(C)(Cc1ccc(Oc2ncccc2C(N)=O)cc1)NC[C@H](O)COc1ccccc1-c1ccc(Cl)s1.Cl [Example 418]")
"TRUE"
>>> classification("CC(C)(Cc1ccc(Oc2ccc(S(C)(=O)=O)cc2)cc1)NC[C@H](O)COc1ccccc1-c1ccco1.Cl [Example 395]")
"FALSE"
>>> classification("CC(C)(Cc1ccc(Oc2ccc(S(C)(=O)=O)cc2)cc1)NC[C@H](O)COc1ccccc1-c1ccc(Cl)s1.Cl [Example 393]")
"FALSE"
>>> classification("CC(C)(Cc1ccc(Oc2ccc(S(C)(=O)=O)cc2)cc1)NC[C@H](O)COc1ccccc1-c1cccnc1.Cl.Cl [Example 392]")
"FALSE"
>>> classification("CC(=O)c1ccc(-c2cccc(F)c2OC[C@@H](O)CNC(C)(C)Cc2ccc(Oc3ccc(C#N)cn3)cc2)s1.O=C(O)C(F)(F)F [Example 429]")
"TRUE"
>>> classification("CC(C)(Cc1ccc(Oc2ncccc2C(N)=O)cc1)NC[C@H](O)COc1ccccc1-c1cc2ccccc2s1.O=C(O)C(F)(F)F [Example 387]")
"TRUE"
>>> classification("CC(=O)c1ccc(-c2ccccc2OC[C@@H](O)CNC(C)(C)Cc2ccc(Oc3ncccc3C(N)=O)cc2)s1.O=C(O)C(F)(F)F [Example 419]")
"TRUE"
>>> classification("Cc1ccc(-c2ccccc2OC[C@@H](O)CNC(C)(C)Cc2ccc(Oc3ccc(S(C)(=O)=O)cc3)cc2)s1.Cl [Example 396]")
"FALSE"

Problem: Entry CC(C)(Cc1ccc(Oc2ncccc2C#N)cc1)NC[C@H](O)COc1ccccc1-c1ccsc1 [Example 380] : is its Emax (%) ± SEM no less than 70%?
Solution: FALSE

Problem: Entry CC(C)(Cc1ccc(Oc2ncccc2C(N)=O)cc1)NC[C@H](O)COc1ccccc1-c1cc2ccccc2o1 [Example 372] : is its Emax (%) ± SEM no less than 70%?
Solution: FALSE

Problem: Entry CC(=O)c1ccc(-c2ccccc2OC[C@@H](O)CNC(C)(C)Cc2ccc(Oc3ccc(C#N)cn3)cc2)s1.Cl [Example 407] : is its Emax (%) ± SEM no less than 70%?
Solution: TRUE

Problem: Entry CC(C)(Cc1ccc(Oc2ccc(S(C)(=O)=O)cc2)cc1)NC[C@H](O)COc1ccccc1-c1cccs1.Cl [Example 383] : is its Emax (%) ± SEM no less than 70%?
Solution: FALSE

Problem: Entry CC(C)(Cc1ccc(Oc2ncccc2C(N)=O)cc1)NC[C@H](O)COc1ccccc1-c1ccsc1.Cl [Example 446] : is its Emax (%) ± SEM no less than 70%?
Solution: FALSE

Problem: Entry CC(C)(Cc1ccc(Oc2ccc(C(N)=O)cn2)cc1)NC[C@H](O)COc1ccccc1-c1ccc(Cl)s1.Cl [Example 410] : is its Emax (%) ± SEM no less than 70%?
Solution: TRUE

Problem: Entry CC(C)(Cc1ccc(Oc2ncccc2C(N)=O)cc1)NC[C@H](O)COc1ccccc1-c1ccncc1 [Example 376] : is its Emax (%) ± SEM no less than 70%?
Solution: FALSE

Problem: Entry CC(C)(Cc1ccc(Oc2ccc(C(N)=O)cn2)cc1)NC[C@H](O)COc1ccccc1-c1ccco1.Cl [Example 412] : is its Emax (%) ± SEM no less than 70%?
Solution: TRUE

Problem: Entry CC(C)(Cc1ccc(Oc2ncccc2C(N)=O)cc1)NC[C@H](O)COc1ccccc1-c1cccnc1 [Example 391] : is its Emax (%) ± SEM no less than 70%?
Solution: FALSE

Problem: Entry CC(=O)c1ccc(-c2cccc(F)c2OC[C@@H](O)CNC(C)(C)Cc2ccc(Oc3ncccc3C#N)cc2)s1.O=C(O)C(F)(F)F [Example 439] : is its Emax (%) ± SEM no less than 70%?
Solution: TRUE
